Would you mind telling me the reported log10(ED50) of each entry?
System: Mus musculus
Assay: Analgesic activity in sc dosed CD-1 mouse assessed as inhibition of phenylquinone-induced writhing administered 15 to 90 mins prior challenge measured 5 mins post challenge
Assay type: functional
Details: CD-1, sc
The base-10 logarithm of ED50, taken with ED50 in mg/kg, is what appears here.

Query :: Returns the measured log10(ED50) for the input molecule. Input: Br.CCCCN1CCC2(c3cccc(O)c3)CCC1C2 (racemic)
Result :: 0.94

Query :: Returns the measured log10(ED50) for the input molecule. Input: Br.CC(=O)Oc1cccc(C23CCC(C2)N(CCc2ccccc2)CC3)c1 (racemic)
Result :: 0.00

Query :: Returns the measured log10(ED50) for the input molecule. Input: Br.CN1CCC2(c3cccc(O)c3)CCC1C2 (racemic)
Result :: 1.00

Query :: Returns the measured log10(ED50) for the input molecule. Input: Br.Oc1cccc(C23CCC(C2)N(CCc2ccc(Cl)c(Cl)c2)CC3)c1 (racemic)
Result :: -0.12

Query :: Returns the measured log10(ED50) for the input molecule. Input: Br.Oc1cccc(C23CCC(C2)N(CCc2ccccc2)CC3)c1 (racemic)
Result :: -0.17
